- EXPERIMENTAL_TARGET: SSTR5 (Homo sapiens)
- Sequence (P35346 whole entry): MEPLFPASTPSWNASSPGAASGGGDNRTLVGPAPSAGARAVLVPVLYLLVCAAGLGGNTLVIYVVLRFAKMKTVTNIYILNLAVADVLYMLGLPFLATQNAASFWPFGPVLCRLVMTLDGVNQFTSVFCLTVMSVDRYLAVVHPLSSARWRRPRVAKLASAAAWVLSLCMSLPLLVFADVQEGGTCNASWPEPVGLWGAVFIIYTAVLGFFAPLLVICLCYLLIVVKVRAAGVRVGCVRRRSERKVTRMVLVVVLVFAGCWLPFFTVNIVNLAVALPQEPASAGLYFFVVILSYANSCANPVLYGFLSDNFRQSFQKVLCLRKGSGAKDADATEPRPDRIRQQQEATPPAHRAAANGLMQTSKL
- ASSAY_COMMENT: Radioligand binding assay on membranes of CHO-K1 cells expressing SSTR5
- CONDITIONS: membranes from CHO-K1 cells stably expressing cloned somatostatin receptor 5
Where a SMILES comes first, the peptide text is derived from it. [ ]: non-standard residue; d: D form. Phe(4-F) = N[C@@H](Cc1ccc(F)cc1)C(=O)O; 2Nal = N[C@@H](Cc1ccc2ccccc2c1)C(=O)O; NMeF = CN[C@@H](Cc1ccccc1)C(=O)O; Thz = O=C(O)[C@@H]1CSCN1
Items are presented alongside their recorded IC50.
PROPERTY_NAME: IC50 (nM)

compound="CSCC[C@@H]1NC(=O)[C@H]([C@@H](C)O)NC(=O)[C@H](CCCCN)NC(=O)[C@@H](Cc2c[nH]c3ccccc23)NC(=O)[C@H](Cc2ccc(F)cc2)NC(=O)[C@H](Cc2ccccc2)N(C)C1=O [P2292] (cyclo([Phe(4-F)][dW]KTM[NMeF]))" experimental_target="SSTR5 (Homo sapiens)" value_observed=7.61
compound="CSCC[C@@H]1NC(=O)[C@H]([C@@H](C)O)NC(=O)[C@H](CCCCN)NC(=O)[C@@H](Cc2c[nH]c3ccccc23)NC(=O)[C@H](Cc2ccc3ccccc3c2)NC(=O)[C@H](Cc2ccccc2)N(C)C1=O [P2279, cyclo[2Nal-Dtrp-Lys-Thr-Met-(N-Me)Phe]] (cyclo([2Nal][dW]KTM[NMeF]))" experimental_target="SSTR5 (Homo sapiens)" value_observed=15
compound="CSCC[C@@H]1NC(=O)[C@H]([C@@H](C)O)NC(=O)[C@H](CCCCN)NC(=O)[C@@H](Cc2c[nH]c3ccccc23)NC(=O)[C@@H]2CSCN2C(=O)[C@H](Cc2ccccc2)NC1=O [P2297, cyclo[ThioPro-DTrp-Lys-Thr-Met-Phe]] (cyclo([Thz][dW]KTMF))" experimental_target="SSTR5 (Homo sapiens)" value_observed=34.5
compound="CSCC[C@@H]1NC(=O)[C@H]([C@@H](C)O)NC(=O)[C@H](CCCCN)NC(=O)[C@@H](Cc2c[nH]c3ccccc23)NC(=O)[C@H](Cc2ccc(O)cc2)NC(=O)[C@H](Cc2ccccc2)N(C)C1=O [P2265, cyclo[Tyr-DTrp-Lys-Thr-Met-(NMe)Phe]] (cyclo(Y[dW]KTM[NMeF]))" experimental_target="SSTR5 (Homo sapiens)" value_observed=11.6
